- experimental-details: Urinary and bile excretion after oral administration, bioassay by cup method
- Assay type: in vivo
- measurement-parameters: rat; fasted rats, 10 mg/kg oral; bile 0 ~ 6 hr; Mean ± S.D. (n=5); read-out: Recovery, bile
Counter-ions that a name gives are not always drawn.
As shown below, each of these molecules has a reported dose excreted at 6 h value.
measurement-name: dose excreted at 6 h (%)

CCNCC1CCN(c2c(F)cc3c(=O)c(C(=O)O)cn(C4CC4)c3c2Cl)C1 (centres unmarked) = 6.9
CCNCC1CCN(c2c(F)cc3c(=O)c(C(=O)O)cn(C4CC4)c3c2F)C1 (centres unmarked) [Example 2, hydrochloride] = 4.3

* * *

- experimental-details: Absorption and distribution: concentration in blood and organs after oral administration, bioassay by cup method
- Type: in vivo
- measurement-parameters: rat; rats, fasted, 10 mg/kg oral, lung, 8 hr after administration; Mean ± S.D. (n=5); read-out: Concentration in organs: Lung
Where a name gives a salt, the structure may show the parent alone.
As shown below, each of these compounds has a reported concentration at 8 h value.
measurement-name: concentration at 8 h (ng/g)

CCNCC1CCN(c2c(F)cc3c(=O)c(C(=O)O)cn(C4CC4)c3c2Cl)C1 (centres unmarked) = 450
CCNCC1CCN(c2c(F)cc3c(=O)c(C(=O)O)cn(C4CC4)c3c2F)C1 (centres unmarked) [Example 2, hydrochloride] = 380

* * *

As shown below, each of these molecules has a reported MIC value.
- Test system: E. coli ATCC 10536
- experimental-details: In vitro antibacterial activity, MIC (standard strain)
- Format: cell-based
- measurement-parameters: Escherichia coli, ATCC10536; E. coli ATCC 10536; 10^6 cells/ml; standard strain; read-out: MIC
Where a name gives a salt, the structure may show the parent alone.
measurement-name: MIC (µg/mL)

CCNCC1CCN(c2c(F)cc3c(=O)c(C(=O)O)cn(CC)c3c2F)C1 (centres unmarked) [Ref.1, reference compound] = 0.1
CCNCC1CCN(c2c(F)cc3c(=O)c(C(=O)O)cn(C4CC4)c3c2F)C1 (centres unmarked) [Example 2, hydrochloride] = 0.025
CNCC1CCN(c2c(F)cc3c(=O)c(C(=O)O)cn(C4CC4)c3c2F)C1 (centres unmarked) [Example 8, hydrochloride] = 0.025
CN(C)CC1CCN(c2c(F)cc3c(=O)c(C(=O)O)cn(C4CC4)c3c2F)C1 (centres unmarked) = 0.05
CCCNCC1CCN(c2c(F)cc3c(=O)c(C(=O)O)cn(C4CC4)c3c2F)C1 (centres unmarked) [Example 10, hydrochloride] = 0.1
CCNCC1CCN(c2c(F)cc3c(=O)c(C(=O)O)cn(C4CC4)c3c2Br)C1 (centres unmarked) = 0.025
CCNCC1CCN(c2c(F)cc3c(=O)c(C(=O)O)cn(C4CC4)c3c2Cl)C1 (centres unmarked) = 0.025
CNCC1CCN(c2c(F)cc3c(=O)c(C(=O)O)cn(C4CC4)c3c2Cl)C1 (centres unmarked) [Example 12, hydrochloride] = 0.025

* * *

As shown below, each of these compounds has a reported ED50 value.
- Tested on: E. coli ML4707
- experimental-details: In vivo antibacterial activity against systemic infection in mice
- Design: species or system mice (ICR-S)
- measurement-parameters: Escherichia coli, ML4707; mice (ICR-S); oral, an hour after intraperitoneal infection; challenge dose 2.7 x 10^6 ~ 8.8 x 10^6 cfu/mouse; read-out: ED50 E. coli ML4707
- Description: Experiment-2 In vivo antibacterial activity against systemic infection in mice (ICR-S) The infections were produced by intraperitoneal injection of a suspension of the bacterial culture corresponding to the germ studied. The products were administered orally at an hour after the infection.
Counter-ions that a name gives are not always drawn.
measurement-name: ED50

CCNCC1CCN(c2c(F)cc3c(=O)c(C(=O)O)cn(C4CC4)c3c2Cl)C1 (stereo not drawn) = 0.7 mg/kg
CN(C)CC1CCN(c2c(F)cc3c(=O)c(C(=O)O)cn(C4CC4)c3c2F)C1 (stereo not drawn) = 1.2 mg/kg
NCC1CCN(c2c(F)cc3c(=O)c(C(=O)O)cn(C4CC4)c3c2Br)C1 (stereo not drawn) = 7.1 mg/kg
CNCC1CCN(c2c(F)cc3c(=O)c(C(=O)O)cn(C4CC4)c3c2F)C1 (stereo not drawn) [Example 8, hydrochloride] = 1.9 mg/kg
CNCC1CCN(c2c(F)cc3c(=O)c(C(=O)O)cn(C4CC4)c3c2Cl)C1 (stereo not drawn) [Example 12, hydrochloride] = 1.9 mg/kg
CCNCC1CCN(c2c(F)cc3c(=O)c(C(=O)O)cn(CC)c3c2F)C1 (stereo not drawn) [Ref.1, reference compound] = > 10 mg/kg
CCNCC1CCN(c2c(F)cc3c(=O)c(C(=O)O)cn(C4CC4)c3c2Br)C1 (stereo not drawn) = 0.9 mg/kg
NCC1CCN(c2c(F)cc3c(=O)c(C(=O)O)cn(C4CC4)c3c2F)C1 (stereo not drawn) = 3 mg/kg
CN(C)CC1CCN(c2c(F)cc3c(=O)c(C(=O)O)cn(C4CC4)c3c2Cl)C1 (stereo not drawn) = 2.1 mg/kg
NCC1CCN(c2c(F)cc3c(=O)c(C(=O)O)cn(C4CC4)c3c2Cl)C1 (stereo not drawn) [Example 14, hydrochloride] = 5.4 mg/kg
CCNCC1CCN(c2c(F)cc3c(=O)c(C(=O)O)cn(C4CC4)c3c2F)C1 (stereo not drawn) [Example 2, hydrochloride] = 0.8 mg/kg
CNCC1CCN(c2c(F)cc3c(=O)c(C(=O)O)cn(C4CC4)c3c2Br)C1 (stereo not drawn) = 1.9 mg/kg

* * *

- Tested on: P. aeruginosa IID 1210
- experimental-details: In vitro antibacterial activity, MIC (standard strain)
- Assay type: cell-based
- measurement-parameters: Pseudomonas aeruginosa, IID1210; P. aeruginosa IID 1210; 10^6 cells/ml; standard strain; read-out: MIC
Structures can show the parent of a compound that is named as a salt.
As shown below, each of these compounds has a reported MIC value.
measurement-name: MIC (µg/mL)

CC(C)NCC1CCN(c2c(F)cc3c(=O)c(C(=O)O)cn(C4CC4)c3c2F)C1.Cl (centres unmarked) [Example 11] = 3.13
NCC1CCN(c2c(F)cc3c(=O)c(C(=O)O)cn(C4CC4)c3c2Br)C1 (centres unmarked) [Example 15] = 0.78
CCNCC1CCN(c2c(F)cc3c(=O)c(C(=O)O)cn(CC)c3c2F)C1 (centres unmarked) [Ref.1, reference compound] = 12.5
CNCC1CCN(c2c(F)cc3c(=O)c(C(=O)O)cn(C4CC4)c3c2F)C1 (centres unmarked) [Example 8, hydrochloride] = 1.56
CCNCC1CCN(c2c(F)cc3c(=O)c(C(=O)O)cn(C4CC4)c3c2Br)C1 (centres unmarked) [Example 17] = 1.56

* * *

- Tested on: P. aeruginosa IID 1210
- experimental-details: In vitro antibacterial activity, MIC (standard strain)
- Type: cell-based
- measurement-parameters: Pseudomonas aeruginosa, IID1210; P. aeruginosa IID 1210; 10^6 cells/ml; standard strain; read-out: MIC
Structures can show the parent of a compound that is named as a salt.
measurement-name: MIC

NCC1CCN(c2c(F)cc3c(=O)c(C(=O)O)cn(C4CC4)c3c2Cl)C1 (stereo not shown) [Example 14, hydrochloride] = 0.39 µg/mL
CNCC1CCN(c2cc3c(cc2F)c(=O)c(C(=O)O)cn3C2CC2)C1 (stereo not shown) [Example 9, hydrochloride] = 3.13 µg/mL
CCNCC1CCN(c2cc3c(cc2F)c(=O)c(C(=O)O)cn3C2CC2)C1.Cl (stereo not shown) = 3.13 µg/mL
NCC1CCN(c2c(F)cc3c(=O)c(C(=O)O)cn(C4CC4)c3c2F)C1 (stereo not shown) [Example 1, hydrochloride] = 0.78 µg/mL

* * *

- Test system: Proteus vulgaris IFO 3167
- experimental-details: In vitro antibacterial activity, MIC (standard strain)
- Type: cell-based
- measurement-parameters: IFO3167; Proteus vulgaris IFO 3167; 10^6 cells/ml; standard strain; read-out: MIC
Structures can show the parent of a compound that is named as a salt.
As shown below, each of these molecules has a reported MIC value.
measurement-name: MIC (µg/mL)

CNCC1CCN(c2cc3c(cc2F)c(=O)c(C(=O)O)cn3C2CC2)C1 (stereo not shown) [Example 9, hydrochloride] = 0.1
CCCNCC1CCN(c2c(F)cc3c(=O)c(C(=O)O)cn(C4CC4)c3c2F)C1 (stereo not shown) [Example 10, hydrochloride] = 0.025
CCNCC1CCN(c2c(F)cc3c(=O)c(C(=O)O)cn(CC)c3c2F)C1 (stereo not shown) [Ref.1, reference compound] = 0.05
CCn1cc(C(=O)O)c(=O)c2cc(F)c(N3CCNCC3)cc21 [NFLX, Norfloxacin, reference compound] = 0.025
CN(C)CC1CCN(c2c(F)cc3c(=O)c(C(=O)O)cn(C4CC4)c3c2Cl)C1 (stereo not shown) = 0.05
CCNCC1CCN(c2cc3c(cc2F)c(=O)c(C(=O)O)cn3C2CC2)C1.Cl (stereo not shown) = 0.05
CC(C)NCC1CCN(c2c(F)cc3c(=O)c(C(=O)O)cn(C4CC4)c3c2F)C1.Cl (stereo not shown) = 0.05
NCC1CCN(c2c(F)cc3c(=O)c(C(=O)O)cn(C4CC4)c3c2Cl)C1 (stereo not shown) [Example 14, hydrochloride] = 0.025
CNCC1CCN(c2c(F)cc3c(=O)c(C(=O)O)cn(C4CC4)c3c2Cl)C1 (stereo not shown) [Example 12, hydrochloride] = 0.025
CN(C)CC1CCN(c2c(F)cc3c(=O)c(C(=O)O)cn(C4CC4)c3c2F)C1 (stereo not shown) = 0.05
CNCC1CCN(c2c(F)cc3c(=O)c(C(=O)O)cn(C4CC4)c3c2F)C1 (stereo not shown) [Example 8, hydrochloride] = 0.025
CCNCC1CCN(c2c(F)cc3c(=O)c(C(=O)O)cn(C4CC4)c3c2Br)C1 (stereo not shown) = 0.025
CCNCC1CCN(c2c(F)cc3c(=O)c(C(=O)O)cn(C4CC4)c3c2F)C1 (stereo not shown) [Example 2, hydrochloride] = 0.025
NCC1CCN(c2c(F)cc3c(=O)c(C(=O)O)cn(C4CC4)c3c2F)C1 (stereo not shown) [Example 1, hydrochloride] = 0.025
CNCC1CCN(c2c(F)cc3c(=O)c(C(=O)O)cn(C4CC4)c3c2Br)C1 (stereo not shown) = 0.025
CCNCC1CCN(c2c(F)cc3c(=O)c(C(=O)O)cn(C4CC4)c3c2Cl)C1 (stereo not shown) = 0.025
